- SYSTEM: ScAlt1 (Saccharomyces cerevisiae)
- Construct: N-terminal His-tag (pET-28a), E. coli Rosetta 2 (DE3); theoretical monomer 61 kDa, SEC 147 kDa, dimer
- Sequence (P52893 81-592): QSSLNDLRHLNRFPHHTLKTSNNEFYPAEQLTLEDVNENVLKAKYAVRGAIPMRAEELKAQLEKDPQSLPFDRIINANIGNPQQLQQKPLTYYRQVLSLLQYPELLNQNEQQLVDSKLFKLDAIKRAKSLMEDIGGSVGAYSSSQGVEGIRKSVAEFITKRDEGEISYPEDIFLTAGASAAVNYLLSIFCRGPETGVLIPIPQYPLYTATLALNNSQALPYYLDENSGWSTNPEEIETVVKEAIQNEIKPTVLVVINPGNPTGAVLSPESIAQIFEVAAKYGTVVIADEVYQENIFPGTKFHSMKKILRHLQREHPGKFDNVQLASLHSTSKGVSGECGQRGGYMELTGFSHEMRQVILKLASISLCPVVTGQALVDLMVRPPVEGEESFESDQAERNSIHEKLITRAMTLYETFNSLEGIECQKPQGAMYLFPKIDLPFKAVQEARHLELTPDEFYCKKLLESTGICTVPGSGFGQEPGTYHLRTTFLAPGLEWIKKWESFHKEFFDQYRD
- ASSAY: intrinsic fluorescence titration ([…] nm)
ENDPOINT_LABEL: Kd (µM)
Value expressed in µM; do not type the unit.

Query block: Query Kd for C[C@H](N)C(=O)O
Result block: 1000
